Test: NCI Yeast Anticancer Drug Screen. Data for the rad50 strain (AID 155);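 also: 0% = growth of vehicle-only cultures of the same strain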
Details: S. cerevisiae rad50 strain growth inhibition; at 5.0 µM (retest, dose inferred, filed as 0.5); active compounds read high
The panel holds about 79,000 compounds, 15% with a hit somewhere; the sample as a whole holds those more often.
Please respond with reported growth inhibition for every item in the list.
One number for each entry, in %.

1. CC(=O)OCC1OC(SSc2ccccc2)C(OC(C)=O)C(OC(C)=O)C1OC(C)=O (stereo not given) ... -2
2. O=[N+]([O-])c1ccc(Sc2ccsc2)c([N+](=O)[O-])c1 ... 4
3. COc1ccc(Cc2nc3ccc(Cl)cc3[nH]2)cc1 ... 4
4. O=C(C[n+]1ccccc1)N=N/C(C(=O)Nc1c(Cl)c(O)c2ccccc2c1O)=C1/C(=O)Oc2cc(O)ccc2C1=O ... 15
5. COC(=O)C(C#N)C(c1ccccc1)c1c[nH]c2ccccc12 (stereo not given) ... -3

// batch mode: one growth inhibition value per listed entry
1. C(=N\NC1=NCCN1)/c1cccc2cc3ccncc3nc12
2. COC(=O)Nc1nc2ccc(C(C)(O)c3cccs3)cc2[nH]1 (stereo not given)
3. Cc1cc(NC(=S)SCc2ccc3c(c2)OCO3)ccc1Cl
4. COc1ccc2c(c1)sc(/C=C/c1ccc(O)c3ncccc13)[n+]2C
5. CCCCCCC(/C=C/c1ccccc1)=N\O

# output
8
-2
31
12
0

###

Test: NCI Yeast Anticancer Drug Screen. Data for the cln2 rad14 strain (AID 165);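 also: 0% = growth equal to vehicle treated cultures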
Settings: S. cerevisiae cln2 rad14 strain, at 5.0 µM (retest, dose inferred, filed as 0.5)
About 79,000 compounds went through this panel and 15% of them were active in at least one assay; those are over-represented in the sample as a whole. Active and inactive are the calls of the source. Cut-off read from the data, not from the text of the source: active = growth inhibition above about 70%; inactive = the rest.
Could you please pick one outcome from this set? active, inactive

Would you please look over these solved cases?
1. CCCCNc1cccc2ncccc12 ... inactive
2. Cc1cc(Br)cc(C)c1NC(=O)C(=O)C(C(=O)c1ccc2ccccc2c1)C1OC(=O)c2ccccc21 (configuration not stated) ... inactive
3. CCCC/C(=C\c1cc(Cl)c(O)c(Cl)c1)C(=O)O ... inactive
4. CC(C)c1cc(=O)c2cc3[nH]c4ccccc4c3cc2[nH]1 ... inactive
5. CCCCCCCCCCCCCCCC(=O)NCCN(C)C ... inactive

# input Look up the recorded call for "Cc1ccc2c(c1)-c1cc(C)ccc1C2(O)c1ccccc1" in this test.
# output inactive

# input Status in this test for "c1ccc(OCCCOc2ccccc2)cc1" ?
# output inactive

# input Which outcome was assigned to "O=C(O)CCC(=O)NCCNC(=O)CC(=O)O" in this test?
# output inactive

# input What call does the record list for COC1=CC(=O)c2c(O)c3c(c(O)c2C1=O)C=C(C)OC3O (configuration not stated) ?
# output inactive

# input How did this test come out for Cc1nnc(NS(=O)(=O)c2ccc(N=Nc3cc(N=Nc4ccc(S(=O)(=O)Nc5nnc(C)s5)cc4)c4c(NC(=O)C(Cl)Cl)cccc4c3OC(=O)C(Cl)Cl)cc2)s1 (tested in a mixture with another compound) ?
# output active

# input Hi, do you know how "CC(C)CCN1CCC2(CCCCC2)CC1" came out in this test?
# output inactive

# input What is the recorded call for this compound in the test? "O=S(=O)(OCC#CCOS(=O)(=O)c1ccc(Cl)c(Cl)c1)c1ccc(Cl)c(Cl)c1"
# output inactive

# input State the result this test recorded for "O=S(=O)(Nc1ccccc1)c1ccccc1C(O)(c1ccccc1)c1ccccc1" .
# output inactive

# input Assay outcome for "Cc1ccc(NC(=O)Oc2ccc(OC(=O)Cc3ccccc3)cc2)cc1NC(=O)Oc1ccc(OC(=O)Cc2ccccc2)cc1" : what was it?
# output inactive

// data source = PubChem BioAssay (NCI)
